test system: HCT-15; test: Growth inhibition of human HCT15 cells assessed as cell growth at 10 uM after 48 hrs by sulforhodamine B assay; type: functional; details: HCT-15, 48 h, read-out: Activity
growth at 10 µM: recorded values
The response must be a number in % with no trailing unit.

• CCOc1ccc(-n2nc(C(=O)Nc3ccc(F)c(F)c3)nc2-c2cc(OC)c(OC)c(OC)c2)cc1 = 63.8

// recorded growth at 10 µM for CCOc1ccc(-n2nc(C(=O)Nc3ccccc3OC)nc2-c2cc(OC)c(OC)c(OC)c2)cc1 : 80.8

// recorded growth at 10 µM for CCOc1ccc(-n2nc(C(=O)Nc3cc(F)cc(F)c3)nc2-c2cc(OC)c(OC)c(OC)c2)cc1 : 77.9

// recorded growth at 10 µM for COc1cccc(-n2nc(C(=O)Nc3ccccc3)nc2-c2cc(OC)c(OC)c(OC)c2)c1 : 88

// recorded growth at 10 µM for CCOc1ccc(-n2nc(C(=O)Nc3cccc(OC)c3)nc2-c2cc(OC)c(OC)c(OC)c2)cc1 : 74.3

// recorded growth at 10 µM for CCOc1ccc(-n2nc(C(=O)NCc3ccccc3OC)nc2-c2cc(OC)c(OC)c(OC)c2)cc1 : 29
